# System: DU-145 prostate
# EXPERIMENT: NCI-60 one-dose screen, 48 h (100 = growth as untreated, 0 = no growth, -100 = all killed)
# CONDITIONS USED: 10 µM unless noted
Compounds without any hit were thinned out: in the full panel of roughly 83,000, 20% have a hit.
So I've got a bunch of compounds here, and I need their growth values.
One number for each entry, in %.

Below are worked cases with known answers.
{"COMPOUND": "CCOC(=O)c1c(Cl)c2c(n1Cc1ccccc1)-c1oncc1CCC2", "growth / %": 103}
{"COMPOUND": "CCCCN1CCN(c2ccc3nc(-c4ccc5nc(-c6ccc(C(F)(F)F)cc6)[nH]c5c4)[nH]c3c2)CC1", "growth / %": -95.5}
{"COMPOUND": "Cn1c(=O)n(C)c2cc(CNCCNc3ccnc4cc(Cl)ccc34)ccc21", "growth / %": 74.8}
{"COMPOUND": "Cc1c(-c2csc(-n3nc(C(F)(F)F)cc3C(F)(F)F)n2)no[n+]1[O-]", "growth / %": 105}

Consider now this further compound.
Ask | Please report the recorded growth for C=CCN1C(=O)/C(=c2\sc3n(c2=O)NC2C(N=3)N(CC)C(=O)N2CC)c2ccccc21 (stereo not given) .
Reply | 26
